# viability, T/C per record follows
tested on: 485368-065-R4-J2-PDC spheroids with HUVEC/MSC, viability; assay: Anticancer human tumor 485368-065-R4-J2-PDC patient-derived pancreatic carcinoma cell line growth inhibition [CLK]; settings: second compound 0.1 µM; first compound 10 µM; active compounds read low;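 note: spheroids exposed to compounds for seven days; 100% = DMSO vehicle control wells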

{"molecule": "CC(CO)NC(=O)c1cc(-c2ccc(Cl)cc2)nn(-c2cnn(C)c2)c1=O (stereo not drawn) + CNC(=O)c1ccc(Nc2nc(OC3CCCC3)c3c(-c4ccc5nc(C)oc5c4)c[nH]c3n2)c(OC)c1", "viability, T/C": "97.8%"}
{"molecule": "CC(=O)O[C@H]1C(=O)[C@@]2(C)[C@H]([C@H](OC(=O)c3ccccc3)[C@]3(O)C[C@H](OC(=O)[C@H](O)[C@@H](NC(=O)c4ccccc4)c4ccccc4)C(C)=C1C3(C)C)[C@]1(OC(C)=O)CO[C@@H]1C[C@@H]2O + CNC(=O)c1ccc(Nc2nc(OC3CCCC3)c3c(-c4ccc5nc(C)oc5c4)c[nH]c3n2)c(OC)c1", "viability, T/C": "76.5%"}

Now take the following molecule into account.
# input Look up 485368-065-R4-J2-PDC spheroids with HUVEC/MSC, viability data: viability, T/C of C#Cc1c(F)ccc2cc(O)cc(-c3ncc4c(N5CC6CCC(C5)N6)nc(OCC56CCCN5CC(F)C6)nc4c3F)c12 (stereo not drawn) + CN1CCN(c2cc(C(=O)Nc3cc4cc(-c5cnn(C)c5)ccc4cn3)ccn2)CC1 , then report it.
# output 75.8%
